Reference source for all entries: patent US9926302B2

# Subject of test: Human CaV2.2 channels (Homo sapiens, UniProt Q00975)
# Construct: expressed in transfected cells
# Sequence (P54289 947-1103): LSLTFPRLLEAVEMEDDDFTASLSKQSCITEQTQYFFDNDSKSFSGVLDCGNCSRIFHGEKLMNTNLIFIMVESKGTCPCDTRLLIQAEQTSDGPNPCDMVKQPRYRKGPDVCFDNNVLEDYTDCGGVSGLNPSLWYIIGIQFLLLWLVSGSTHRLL
# Sequence (P54289 25-946): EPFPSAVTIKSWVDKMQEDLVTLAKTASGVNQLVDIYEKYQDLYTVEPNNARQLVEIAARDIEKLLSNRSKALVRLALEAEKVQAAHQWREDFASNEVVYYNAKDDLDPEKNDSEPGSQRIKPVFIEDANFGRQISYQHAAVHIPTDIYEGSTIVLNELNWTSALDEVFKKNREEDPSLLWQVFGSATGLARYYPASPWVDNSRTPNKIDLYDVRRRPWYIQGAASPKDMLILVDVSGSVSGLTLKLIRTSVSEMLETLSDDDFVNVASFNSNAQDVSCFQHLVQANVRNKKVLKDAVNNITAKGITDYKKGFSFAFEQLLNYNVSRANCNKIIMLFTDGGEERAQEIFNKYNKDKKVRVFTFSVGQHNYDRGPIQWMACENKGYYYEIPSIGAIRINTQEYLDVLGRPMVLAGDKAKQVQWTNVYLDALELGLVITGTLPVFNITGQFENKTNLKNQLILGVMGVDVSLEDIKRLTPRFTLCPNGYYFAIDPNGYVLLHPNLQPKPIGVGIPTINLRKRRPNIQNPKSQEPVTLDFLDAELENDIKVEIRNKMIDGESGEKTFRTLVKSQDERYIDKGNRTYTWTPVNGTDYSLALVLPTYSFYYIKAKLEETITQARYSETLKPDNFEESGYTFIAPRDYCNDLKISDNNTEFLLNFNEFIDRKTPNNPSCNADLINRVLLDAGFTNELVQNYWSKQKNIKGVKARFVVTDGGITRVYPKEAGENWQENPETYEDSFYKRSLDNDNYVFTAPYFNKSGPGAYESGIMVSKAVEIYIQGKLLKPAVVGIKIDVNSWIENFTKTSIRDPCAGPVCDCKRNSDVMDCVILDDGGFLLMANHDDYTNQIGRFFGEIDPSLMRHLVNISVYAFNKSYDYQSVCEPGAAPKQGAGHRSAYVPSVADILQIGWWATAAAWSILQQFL
# Sequence (P54284 whole entry, further chain): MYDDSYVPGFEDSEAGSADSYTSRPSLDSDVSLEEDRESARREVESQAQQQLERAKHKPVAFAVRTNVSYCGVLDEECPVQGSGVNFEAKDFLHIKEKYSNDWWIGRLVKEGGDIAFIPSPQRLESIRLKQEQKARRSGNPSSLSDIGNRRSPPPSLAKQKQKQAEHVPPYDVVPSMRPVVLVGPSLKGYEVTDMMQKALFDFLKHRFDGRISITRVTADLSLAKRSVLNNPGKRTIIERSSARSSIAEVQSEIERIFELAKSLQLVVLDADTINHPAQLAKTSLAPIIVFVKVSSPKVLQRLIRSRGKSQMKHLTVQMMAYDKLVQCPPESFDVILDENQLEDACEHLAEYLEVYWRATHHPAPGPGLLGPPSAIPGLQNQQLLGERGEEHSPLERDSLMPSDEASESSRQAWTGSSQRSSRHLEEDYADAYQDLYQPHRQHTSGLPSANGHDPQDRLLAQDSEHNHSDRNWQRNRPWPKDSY
# Sequence (Q00975 whole entry): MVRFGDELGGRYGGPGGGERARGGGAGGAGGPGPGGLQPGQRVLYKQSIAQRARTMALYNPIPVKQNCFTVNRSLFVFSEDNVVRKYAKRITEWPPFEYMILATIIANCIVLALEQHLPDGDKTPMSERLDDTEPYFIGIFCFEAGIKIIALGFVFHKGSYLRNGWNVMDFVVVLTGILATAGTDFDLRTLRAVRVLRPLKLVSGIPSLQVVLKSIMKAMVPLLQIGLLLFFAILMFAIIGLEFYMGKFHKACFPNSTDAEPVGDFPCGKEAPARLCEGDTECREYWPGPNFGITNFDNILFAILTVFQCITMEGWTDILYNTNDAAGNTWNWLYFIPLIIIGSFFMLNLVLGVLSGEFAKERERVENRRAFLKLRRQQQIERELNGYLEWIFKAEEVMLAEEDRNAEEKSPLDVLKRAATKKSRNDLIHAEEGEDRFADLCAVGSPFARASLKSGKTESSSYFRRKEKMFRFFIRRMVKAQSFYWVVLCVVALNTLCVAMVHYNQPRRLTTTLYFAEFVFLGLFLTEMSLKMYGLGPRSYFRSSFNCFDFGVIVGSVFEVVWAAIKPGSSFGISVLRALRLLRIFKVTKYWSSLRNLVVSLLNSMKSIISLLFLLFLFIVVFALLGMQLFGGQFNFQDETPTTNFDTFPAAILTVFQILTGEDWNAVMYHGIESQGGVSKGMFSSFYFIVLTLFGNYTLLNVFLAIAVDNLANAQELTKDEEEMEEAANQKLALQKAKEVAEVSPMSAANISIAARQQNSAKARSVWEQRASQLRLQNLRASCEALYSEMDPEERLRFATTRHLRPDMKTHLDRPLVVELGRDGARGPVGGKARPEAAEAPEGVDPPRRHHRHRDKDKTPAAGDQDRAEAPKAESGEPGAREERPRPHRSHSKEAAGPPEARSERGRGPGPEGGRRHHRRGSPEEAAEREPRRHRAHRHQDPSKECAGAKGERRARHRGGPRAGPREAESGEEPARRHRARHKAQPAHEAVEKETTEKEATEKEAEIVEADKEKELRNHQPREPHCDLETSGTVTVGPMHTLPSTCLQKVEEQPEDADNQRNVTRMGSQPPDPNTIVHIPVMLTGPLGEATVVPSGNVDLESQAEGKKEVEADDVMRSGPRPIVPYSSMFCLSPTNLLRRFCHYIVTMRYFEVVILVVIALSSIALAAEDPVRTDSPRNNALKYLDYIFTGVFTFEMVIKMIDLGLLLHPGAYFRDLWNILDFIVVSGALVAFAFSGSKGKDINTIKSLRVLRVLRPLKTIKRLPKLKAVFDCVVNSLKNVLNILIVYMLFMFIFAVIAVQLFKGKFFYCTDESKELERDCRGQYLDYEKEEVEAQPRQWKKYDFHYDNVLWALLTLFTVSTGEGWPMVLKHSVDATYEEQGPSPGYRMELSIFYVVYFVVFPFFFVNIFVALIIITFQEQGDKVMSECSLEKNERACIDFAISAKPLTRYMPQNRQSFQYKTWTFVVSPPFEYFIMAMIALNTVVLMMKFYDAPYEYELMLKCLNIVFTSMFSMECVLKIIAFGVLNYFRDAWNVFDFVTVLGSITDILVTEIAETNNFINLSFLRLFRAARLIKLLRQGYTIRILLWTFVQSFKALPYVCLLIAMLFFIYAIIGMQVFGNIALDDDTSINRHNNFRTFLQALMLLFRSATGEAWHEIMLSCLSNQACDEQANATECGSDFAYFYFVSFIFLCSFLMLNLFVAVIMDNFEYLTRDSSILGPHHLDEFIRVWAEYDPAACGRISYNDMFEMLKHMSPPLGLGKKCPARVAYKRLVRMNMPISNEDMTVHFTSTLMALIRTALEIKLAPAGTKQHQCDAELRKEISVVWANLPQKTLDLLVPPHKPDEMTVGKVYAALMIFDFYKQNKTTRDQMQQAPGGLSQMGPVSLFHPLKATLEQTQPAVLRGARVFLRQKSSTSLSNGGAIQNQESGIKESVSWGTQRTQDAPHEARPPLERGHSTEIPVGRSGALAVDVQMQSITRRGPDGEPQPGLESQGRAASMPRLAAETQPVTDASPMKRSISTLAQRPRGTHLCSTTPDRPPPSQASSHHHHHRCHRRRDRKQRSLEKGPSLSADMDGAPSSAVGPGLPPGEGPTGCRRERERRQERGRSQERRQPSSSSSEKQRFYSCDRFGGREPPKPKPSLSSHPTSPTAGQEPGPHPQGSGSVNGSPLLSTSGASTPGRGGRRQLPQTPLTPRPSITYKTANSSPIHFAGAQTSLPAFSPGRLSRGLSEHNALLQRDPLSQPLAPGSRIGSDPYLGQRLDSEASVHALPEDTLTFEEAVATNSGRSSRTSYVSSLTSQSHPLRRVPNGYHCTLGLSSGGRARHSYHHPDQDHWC
# Assay name: Fluorescence assay for CaV2.2 channels using potassium depolarization to induce channel opening (FLIPR, Fluo 4)
# Format: cell-based
# Details: 3 μM test compound; alternative assay buffer 30 mM KCl (inactivated channel state); HEK293 cells stably expressing human CaV2.2
Outcome measure: Activity Category: %-Inhib (CaV2.2) @3 μM @30 mM KCl

>>> df
                                   molecule                           subject_of_test        observed_result
0  CC1(S(=O)(=O)c2cccc(C(F)(F)F)c2)CCOC(c2cnc(C3CC3)cn2)C1 (centres unmarked)  Human CaV2.2 channels (Homo sapiens, UniProt Q00975)  A (%-Inhibition >95%)
1  COc1cc(C#N)c(C2CC(C)(S(=O)(=O)c3cccc(C(F)(F)F)c3)CCO2)cn1 (centres unmarked) [SC-260]  Human CaV2.2 channels (Homo sapiens, UniProt Q00975)  A (%-Inhibition >95%)
2  Cn1nc(C(F)(F)F)cc1C1CC(C)(S(=O)(=O)c2cccc(C(F)(F)F)c2)CCO1 (centres unmarked)  Human CaV2.2 channels (Homo sapiens, UniProt Q00975)  A (%-Inhibition >95%)

====

# Subject of test: Human CaV2.2 channels (Homo sapiens)
# Construct: expressed in transfected cells
# Assay name: Fluorescence assay for CaV2.2 channels using potassium depolarization to induce channel opening (FLIPR, Fluo 4)
# Type: cell-based
# Details: 3 μM test compound; alternative assay buffer 30 mM KCl (inactivated channel state); HEK293 cells stably expressing human CaV2.2
Outcome measure: Activity Category: %-Inhib (CaV2.2) @3 μM @30 mM KCl

In [3]: df
Out[3]:
                                   molecule        observed_result
0  CC1(S(=O)(=O)c2cccc(C(F)(F)F)c2)CCOC(c2ccc(C3CC3)nc2)C1 (stereo not shown) [SC-348]  A (%-Inhibition >95%)
1  COc1cc(OC)c(C2CC(C)(S(=O)(=O)c3cccc(C(F)(F)F)c3)CCO2)cn1 (stereo not shown) [SC-246]  A (%-Inhibition >95%)
2  COc1cc(OC(F)F)c(C2CC(C)(S(=O)(=O)c3cccc(C(F)(F)F)c3)CCO2)cn1 (stereo not shown) [SC-254]  A (%-Inhibition >95%)

====

# Subject of test: Human CaV2.2 channels (Homo sapiens)
# Construct: expressed in transfected cells
# Assay name: Fluorescence assay for CaV2.2 channels using potassium depolarization to induce channel opening (FLIPR, Fluo 4)
# Format: cell-based
# Details: HEK293, 3 μM test compound; alternative assay buffer 30 mM KCl (inactivated channel state); HEK293 cells stably expressing human CaV2.2; read-out: Activity Category: %-Inhib (CaV2.2) @3 μM @30 mM KCl
Outcome measure: inhibition at 3 µM

[in] // fetch Human CaV2.2 channels (Homo sapiens) inhibition at 3 µM for CC1(S(=O)(=O)c2cccc(C(F)(F)F)c2)CCOC(c2ccc(C3CC3)nc2)C1 (racemic) [SC-347]
[out] > 95%

[in] // fetch Human CaV2.2 channels (Homo sapiens) inhibition at 3 µM for CN(C)c1cnc(C2CC(C)(S(=O)(=O)c3cccc(C(F)(F)F)c3)CCO2)cn1 (centres unmarked)
[out] 75 to 95%

[in] // fetch Human CaV2.2 channels (Homo sapiens) inhibition at 3 µM for COc1cnc(C2CC(C)(S(=O)(=O)c3cccc(C(F)(F)F)c3)CCO2)cn1 (centres unmarked)
[out] 75 to 95%

[in] // fetch Human CaV2.2 channels (Homo sapiens) inhibition at 3 µM for CC1(S(=O)(=O)c2cccc(C(F)(F)F)c2)CCOC(c2ccc(N3CCCC3)nc2)C1 (racemic) [SC-406]
[out] > 95%

[in] // fetch Human CaV2.2 channels (Homo sapiens) inhibition at 3 µM for CC1(S(=O)(=O)c2cccc(C(F)(F)F)c2)CCOC(c2nc(C3CC3)co2)C1 (centres unmarked)
[out] > 95%

[in] // fetch Human CaV2.2 channels (Homo sapiens) inhibition at 3 µM for CC(C)c1cccc(S(=O)(=O)C2(C)CCOC(c3ncc(S(C)(=O)=O)cc3Cl)C2)c1 (centres unmarked)
[out] 75 to 95%

[in] // fetch Human CaV2.2 channels (Homo sapiens) inhibition at 3 µM for CC1(S(=O)(=O)c2cccc(C(F)(F)F)c2)CCOC(COc2cnc(C3CC3)cn2)C1 (single isomer, unassigned)
[out] 75 to 95%

[in] // fetch Human CaV2.2 channels (Homo sapiens) inhibition at 3 µM for CC1(S(=O)(=O)c2cccc(C(F)(F)F)c2)CCOC(c2cncc(C3CC3)c2)C1 (centres unmarked)
[out] > 95%
